System: COLO 205 colon
protocolSummary: NCI-60 one-dose screen, 48 h (100 = growth as untreated, 0 = no growth, -100 = all killed)
settings: 10 µM unless noted
Compounds without any hit were thinned out: in the full panel of roughly 83,000, 20% have a hit. Active and inactive are the calls of the source. How the source made its calls: active means growth percent below 10; inactive means the rest.
metric: growth

Exercise: Given C=C(C)[C@@H]1CC[C@]2(CN)CC[C@]3(C)[C@H](CC[C@@H]4[C@@]5(C)CCC(=O)NC(C)(C)[C@@H]5CC[C@]43C)[C@@H]12 , state its recorded growth.
Key: 75.9% (inactive)

Exercise: Given COc1ccc(/C=C/C(=O)NCC(C)O)cc1 (stereo unspecified) , state its recorded growth.
Key: 104% (inactive)

Exercise: Given O=C(CCCCCn1c2ccccc2c2c3c(c4c5ccccc5[nH]c4c21)C(=O)N(O)C3=O)N1CCOCC1 , state its recorded growth.
Key: 62% (inactive)

Exercise: Given c1ccc(-c2nc(Nc3ccc(-c4nc5ccccc5[nH]4)cc3)nc(N3CCOCC3)n2)cc1 , state its recorded growth.
Key: -68.8% (active)

Exercise: Given Cc1nn(-c2ccc(Br)cc2)c2nc3[nH]c(=O)[nH]c(=O)c3nc12 , state its recorded growth.
Key: 115% (inactive)

Exercise: Given NS(=O)(=O)c1ccc(CCNC(=O)/C=C/c2ccc(Cl)cc2)cc1 , state its recorded growth.
Key: 110% (inactive)

Exercise: Given C=C1CC[C@@H](C(=O)OC)Cc2nc(C)ccc21 , state its recorded growth.
Key: 117% (inactive)

Exercise: Given CCOC(=O)C1OC1(c1ccccc1)c1ccccc1 (stereo unspecified) , state its recorded growth.
Key: 119% (inactive)

Exercise: Given Clc1ccccc1-c1nc(Nc2nc3ccccc3s2)nc(C(Cl)(Cl)Cl)n1 , state its recorded growth.
Key: 10.9% (inactive)

Exercise: Given C#Cc1cccc(NC(=O)C2CCCN(C(=O)CCl)C2)c1 (stereo unspecified) , state its recorded growth.
Key: 27.2% [8.25 µM] (inactive)

Exercise: Given CCN(CC)c1ccc(/C=C/c2cc(C)c3ccccc3n2)cc1 , state its recorded growth.
Key: 24.7% (inactive)

Exercise: Given CN1CCN(CCOc2ccc(-c3cnc4c(-c5ccccc5F)cnn4c3)cc2)CC1 , state its recorded growth.
Key: -79.3% (active)

Exercise: Given COc1ccc(-c2nc(SCC(=O)Nc3ccc(C(C)=O)cc3)[nH]c(=O)c2C#N)cc1 , state its recorded growth.
Key: 115% (inactive)

Exercise: Given CN1CCN(CCOc2ccc(-c3cnc4c(-c5cccc(F)c5)cnn4c3)cc2)CC1 , state its recorded growth.
Key: 32.4% (inactive)

Exercise: Given Cc1oc(-c2ccccc2Cl)cc1C(=O)Nc1ccc(S(N)(=O)=O)cc1 , state its recorded growth.
Key: 116% (inactive)

Exercise: Given c1ccc2[nH]c(-c3ccc(Nc4nc(N5CCCCC5)nc(N5CCOCC5)n4)cc3)nc2c1 , state its recorded growth.
Key: -61.3% (active)

Exercise: Given COC(=O)c1cc(=O)nc(N/N=C/c2ccc(C)cc2)s1 , state its recorded growth.
Key: 114% (inactive)

Exercise: Given OCCNc1nc(Nc2ccc(Cl)c(Cl)c2)nc2ccccc12 , state its recorded growth.
Key: -21.7% (active)

Exercise: Given N#CC1c2ccccc2-c2ccccc2N1C(=O)c1ccccc1 (stereo unspecified) , state its recorded growth.
Key: -1.39% (active)

Exercise: Given Cc1ccc(-c2nc3ccc(Cl)cc3c(=O)n2N2C(=O)CSC2c2ccccc2Cl)cc1 (stereo unspecified) , state its recorded growth.
Key: 66.6% (inactive)

Exercise: Given C=C1C(=O)O[C@H]2[C@H]1CC/C(COC(=O)NCCc1c[nH]c3ccccc13)=C\CC[C@@]1(C)O[C@@H]21 , state its recorded growth.
Key: -38.2% (active)

----------
System: NCI/ADR-RES ovarian
protocolSummary: NCI-60 one-dose screen, 48 h
settings: 10 µM unless noted
About 83,000 compounds went through this panel and 20% of them were active in at least one assay; those are over-represented in the sample as a whole. The source made the active and inactive calls. How the source made its calls: active means growth percent below 10; inactive means the rest.
Answer with one of the outcomes given here: 1.0 for active, 0.0 for inactive

Exercise: For O=c1[nH]ncc(Br)c1Br , what call appears in the results of this test?
Key: 0.0

Exercise: For Clc1ccc2c(NCCNc3nc(-c4ccccc4)cc(-c4ccccc4)n3)ccnc2c1 , what call appears in the results of this test?
Key: 1.0

Exercise: For COc1cnc2c(c1)C(=O)c1c-2n(CCCN2CCN(CCO)CC2)c(=O)c2cc([N+](=O)[O-])ccc12 , what call appears in the results of this test?
Key: 0.0

Exercise: For CCCCC[C@H]1C/C=C2/C(=O)C(Cl)=C[C@@H]2C/C=C\CCCC(=O)O1 , what call appears in the results of this test?
Key: 0.0

Exercise: For COC(=O)[C@@H]1[C@H]2C[C@H]3c4[nH]c5cc(OC)ccc5c4CCN3C[C@@H]2C[C@H](OC(=O)/C=C/c2ccnc(OC)c2)[C@H]1OC , what call appears in the results of this test?
Key: 0.0

Exercise: For Cn1cc(-c2nc(-c3cn(C)c4ncccc34)cs2)c2ccccc21 , what call appears in the results of this test?
Key: 1.0

Exercise: For CC(C)=CCC/C(C)=C/CC/C(C)=C/CC/C(C)=C/CSC[C@H](NC(=O)CCCCCN1CCN(C)CC1)C(=O)NC1CCCCC1 , what call appears in the results of this test?
Key: 0.0

Exercise: For N=C(N)c1ccc(-c2ccc(-c3cc(F)cc(F)c3)o2)nc1 , what call appears in the results of this test?
Key: 0.0

Exercise: For COc1cccc(NC(=O)c2sc3nc4c(cc3c2N)C(=O)CCC4)c1 , what call appears in the results of this test?
Key: 1.0

Exercise: For CN1CCN(CCOc2ccc(-c3cnc4c(-c5ccccc5F)cnn4c3)cc2)CC1 , what call appears in the results of this test?
Key: 0.0

Exercise: For CCC(=O)c1c(C)[nH]c(C)c1C , what call appears in the results of this test?
Key: 0.0

Exercise: For Cc1ccc(N(CC(=O)Nc2ccc(S(=O)(=O)N3CCC(N4CCCC4)CC3)cc2)S(=O)(=O)c2ccc(Cl)cc2)cc1 , what call appears in the results of this test?
Key: 0.0

Exercise: For COc1cc(-c2c(C#N)c(-c3cccs3)nc3c2c(-c2ccccc2)nn3-c2ccccc2)ccc1O , what call appears in the results of this test?
Key: 0.0

Exercise: For Cn1cc(-c2csc(-c3cn(C(=O)OC(C)(C)C)c4ccc(Br)cc34)n2)c2cccnc21 , what call appears in the results of this test?
Key: 0.0

Exercise: For Cc1csc(Nc2nc(-c3cccc(Br)c3)nc(C(Cl)(Cl)Cl)n2)n1 , what call appears in the results of this test?
Key: 0.0

Exercise: For COc1cccc(-c2nn(-c3ccccc3)cc2-c2ccnc(NCCCNS(=O)(=O)c3ccc(Cl)cc3)c2)c1 , what call appears in the results of this test?
Key: 0.0

Exercise: For Fc1ccc(Nc2nnc(-c3ccc(Cl)cc3)o2)cc1 , what call appears in the results of this test?
Key: 0.0

Exercise: For COc1ccc(/C=C/C(=O)c2ccc([N+](=O)[O-])cc2)cc1 , what call appears in the results of this test?
Key: 0.0

Exercise: For CC1(C)CC[C@]2(C(=O)Nc3ccccn3)CC[C@]3(C)C(=CC[C@@H]4[C@@]5(C)C/C(=C/c6ccncc6)C(=O)C(C)(C)[C@@H]5CC[C@]43C)[C@@H]2C1 , what call appears in the results of this test?
Key: 0.0

Exercise: For NC(Cc1ccc(O)cc1)C(=O)N/N=C/c1ccccc1O (stereo unspecified) , what call appears in the results of this test?
Key: 0.0

Exercise: For Cc1cc(C=O)c(C)c2c1[nH]c1ccccc12 , what call appears in the results of this test?
Key: 0.0

----------
System: SR leukemia
protocolSummary: NCI-60 one-dose screen, 48 h
settings: 10 µM unless noted
The panel holds about 83,000 compounds, 20% with a hit somewhere; the sample as a whole holds those more often. Active and inactive are the calls of the source. How the source made its calls: active means growth percent below 10; inactive means the rest.
Answer with one of the outcomes given here: 1 (yes) (active), 0 (no) (inactive)

Exercise: For C=C(C)[C@@H]1CC[C@]2(CN)CC[C@]3(C)[C@H](CC[C@@H]4[C@@]5(C)CCC(=O)NC(C)(C)[C@@H]5CC[C@]43C)[C@@H]12 , what call appears in the results of this test?
Key: 1 (yes)

Exercise: For CC(Cc1ccco1)C(=O)NC(N)=O (stereo unspecified) , what call appears in the results of this test?
Key: 0 (no)

Exercise: For C=C(C)[C@@H]1CC[C@]2(C(=O)N3CCN(CC)CC3)CC[C@]3(C)[C@H](CC[C@@H]4[C@@](C)(CCC(=O)N5CCN(CC)CC5)[C@H](C(=C)C)CC[C@]43C)[C@@H]12 , what call appears in the results of this test?
Key: 1 (yes)

Exercise: For Cc1cc2nc3c4cc(N)ccc4n(CCN(C)C)c3nc2cc1C , what call appears in the results of this test?
Key: 1 (yes)

Exercise: For O=C1c2cccc3cccc(c23)C(=O)N1CC#Cc1ccc2c3c(cccc13)C(=O)N(CCO)C2=O , what call appears in the results of this test?
Key: 0 (no)

Exercise: For COC(=O)[C@]12CC[C@@H](C)[C@H](C)[C@@H]1C1=CC[C@@H]3[C@@]4(C)C[C@@H](OC(C)=O)[C@H](O)[C@@](C)(COC(C)=O)[C@@H]4[C@H](O)C[C@@]3(C)[C@]1(C)CC2 , what call appears in the results of this test?
Key: 1 (yes)
